What IC50 was measured for each of the following?
- Test target: Lck (Homo sapiens)
- Construct: Kinases are expressed as either kinase domains or full length constructs; made in house
- Sequence (P06239 whole entry, species assumed, the tested form may be a part): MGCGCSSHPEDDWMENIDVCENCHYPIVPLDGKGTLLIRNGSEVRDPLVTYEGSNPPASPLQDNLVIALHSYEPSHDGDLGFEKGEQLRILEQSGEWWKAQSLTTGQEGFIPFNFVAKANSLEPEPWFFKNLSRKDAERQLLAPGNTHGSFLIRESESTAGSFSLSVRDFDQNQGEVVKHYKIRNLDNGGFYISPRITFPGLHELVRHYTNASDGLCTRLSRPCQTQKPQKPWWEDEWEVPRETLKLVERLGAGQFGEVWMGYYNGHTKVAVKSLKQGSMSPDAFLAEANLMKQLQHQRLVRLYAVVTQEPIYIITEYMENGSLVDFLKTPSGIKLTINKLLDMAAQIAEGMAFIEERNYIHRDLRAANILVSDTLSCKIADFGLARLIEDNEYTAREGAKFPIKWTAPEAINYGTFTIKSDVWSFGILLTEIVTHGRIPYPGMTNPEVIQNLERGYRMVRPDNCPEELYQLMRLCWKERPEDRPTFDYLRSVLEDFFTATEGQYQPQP
- Protocol details: Kinase inhibition assay (33P transfer), Lck
- Format: biochemical
- Assay context: Table 3, class symbols; read-out: Lck-1

Exercise: Which IC50 is reported for this compound? c1ccc(Cn2ncc3cc(Nc4ncnc(Nc5ccc6ncsc6c5)n4)ccc32)cc1
Solution: 0.888 to 5.33 µM

Exercise: Which IC50 is reported for this compound? CC(C)Nc1ncccc1-c1ncnc(Nc2cccc(CO)c2)n1
Solution: 1.19 to 7.13 µM

Exercise: Which IC50 is reported for this compound? COC(=O)c1ccc(-c2cc(Nc3ncnc(Nc4cccc(S(=O)(=O)O)c4)n3)[nH]n2)cc1
Solution: 5.13 to 7.49 µM

Exercise: Which IC50 is reported for this compound? COC(=O)c1ccc(-c2cc(Nc3ncnc(NCCc4c[nH]c5ccccc45)n3)[nH]n2)cc1
Solution: 0.88 to 5.28 µM

Exercise: Which IC50 is reported for this compound? c1coc(-c2cc(Nc3ncnc(Nc4ccc(-c5csnn5)cc4)n3)n[nH]2)c1
Solution: 5.95 to 8.68 µM

Exercise: Which IC50 is reported for this compound? COc1cc(Nc2ncnc(Nc3cc(Cl)c(NC(=O)c4ccccc4)cc3C)n2)cc(OC)c1OC
Solution: 0.768 to 4.61 µM

Exercise: Which IC50 is reported for this compound? COC(=O)c1ccc(-c2cc(Nc3ncnc(Nc4cc(F)cc(F)c4)n3)[nH]n2)cc1
Solution: > 10.6 µM

Exercise: Which IC50 is reported for this compound? O=C(O)/C=C/c1ccc(Nc2ncnc(Nc3cc(-c4ccco4)[nH]n3)n2)cc1
Solution: 1.03 to 6.16 µM

Exercise: Which IC50 is reported for this compound? COc1ccc(Nc2ncnc(Nc3ccc4ncsc4c3)n2)cc1OC
Solution: 1.05 to 6.31 µM

Exercise: Which IC50 is reported for this compound? CN(c1cccc(Cl)c1)c1ncnc(Nc2cccc(OC(F)(F)F)c2)n1
Solution: > 11.4 µM

Exercise: Which IC50 is reported for this compound? COc1ccc2[nH]cc(CCNc3ncnc(Nc4ccc(OC)c(OC)c4)n3)c2c1
Solution: > 10.7 µM

Exercise: Which IC50 is reported for this compound? COc1ccc(Nc2ncnc(N(C)C3CCN(C)CC3)n2)cc1OC
Solution: > 12.6 µM

Exercise: Which IC50 is reported for this compound? COc1cc(Nc2ncnc(NC(=O)Cc3ccccc3)n2)cc(OC)c1OC
Solution: 1.01 to 6.07 µM

Exercise: Which IC50 is reported for this compound? c1ccc(-c2cc(Nc3ncnc(Nc4ccc5[nH]ncc5c4)n3)[nH]n2)cc1
Solution: 1.08 to 6.5 µM

Exercise: Which IC50 is reported for this compound? COc1cc(Nc2ncnc(N3CCCc4cc(Cl)ccc43)n2)cc(OC)c1OC
Solution: 0.935 to 5.61 µM

Exercise: Which IC50 is reported for this compound? COc1ccc(Nc2ncnc(N(C)c3ccccc3)n2)cc1OC
Solution: 1.19 to 7.11 µM

Exercise: Which IC50 is reported for this compound? COc1cc(Nc2ncnc(-c3cccnc3NCC(C)c3ccccc3)n2)cc(OC)c1OC (stereo not drawn)
Solution: > 9.52 µM

Exercise: Which IC50 is reported for this compound? CNS(=O)(=O)Cc1ccc(Nc2ncnc(Nc3cc(-c4ccco4)[nH]n3)n2)cc1
Solution: 5.63 to 8.21 µM

Exercise: Which IC50 is reported for this compound? COc1cc(Nc2ncnc(-c3cccnc3Nc3cccc(Oc4ccccc4)c3)n2)cc(OC)c1OC
Solution: > 8.61 µM

Exercise: Which IC50 is reported for this compound? COc1cc(Nc2ncnc(-c3cccnc3N[C@H](C)c3ccccc3)n2)cc(OC)c1OC
Solution: < 0.872 µM

Exercise: Which IC50 is reported for this compound? COc1ccc(Nc2ncnc(N(C)[C@H](C)c3ccccc3)n2)cc1OC
Solution: 1.09 to 6.57 µM
